Each recorded value in this set is attributed to patent US20190241669A1.

Quick list: T½ per entry.
# MEASURED_TARGET: Human BCMA (human) (UniProt Q02223)
# PROTOCOL_SUMMARY: SPR, IgG immobilised, huBCMA analyte, 37 C
Give the quantity in min, number only.

Some entries whose results are on file:
BINDER: L3.PY/L3.KF/H3.AQ (antibody, V domains shown, IgG) VH: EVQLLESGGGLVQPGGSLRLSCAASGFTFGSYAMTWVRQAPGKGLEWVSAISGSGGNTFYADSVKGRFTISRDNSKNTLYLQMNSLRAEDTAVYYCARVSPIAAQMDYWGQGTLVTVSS VL: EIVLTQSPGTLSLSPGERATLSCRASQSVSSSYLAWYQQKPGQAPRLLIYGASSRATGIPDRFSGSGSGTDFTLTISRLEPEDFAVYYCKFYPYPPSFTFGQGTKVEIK
ASSAY_RESULT: 5.09

BINDER: L3.PY/L1.PH/H2.QR (antibody, V domains shown, IgG) VH: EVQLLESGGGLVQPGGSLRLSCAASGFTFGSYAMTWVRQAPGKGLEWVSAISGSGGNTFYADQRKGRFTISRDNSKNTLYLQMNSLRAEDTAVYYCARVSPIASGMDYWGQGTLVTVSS VL: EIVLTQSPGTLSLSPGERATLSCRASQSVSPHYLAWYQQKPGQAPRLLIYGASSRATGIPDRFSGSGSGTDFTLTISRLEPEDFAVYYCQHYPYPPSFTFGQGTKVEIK
ASSAY_RESULT: 4.89

BINDER: L3.PY/L3.KY/H2.QR (antibody, V domains shown, IgG) VH: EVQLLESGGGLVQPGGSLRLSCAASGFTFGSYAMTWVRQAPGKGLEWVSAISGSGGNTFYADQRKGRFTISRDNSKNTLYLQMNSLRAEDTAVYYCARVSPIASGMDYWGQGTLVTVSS VL: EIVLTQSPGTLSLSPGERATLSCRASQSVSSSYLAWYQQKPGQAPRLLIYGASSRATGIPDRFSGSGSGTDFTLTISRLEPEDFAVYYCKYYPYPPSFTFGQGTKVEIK
ASSAY_RESULT: 11.7

BINDER: L3.PY/L3.KY/H3.TAQ (antibody, V domains shown, IgG) VH: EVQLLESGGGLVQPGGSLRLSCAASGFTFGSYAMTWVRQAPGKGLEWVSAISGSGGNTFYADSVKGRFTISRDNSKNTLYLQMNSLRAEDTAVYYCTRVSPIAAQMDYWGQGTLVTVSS VL: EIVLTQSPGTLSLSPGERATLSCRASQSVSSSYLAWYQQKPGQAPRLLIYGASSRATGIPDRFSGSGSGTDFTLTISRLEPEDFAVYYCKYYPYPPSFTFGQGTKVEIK
ASSAY_RESULT: 17.8

Any idea what T½ was measured for L3.PY/L1.PH/H3.TAQ (antibody, V domains shown, IgG) VH: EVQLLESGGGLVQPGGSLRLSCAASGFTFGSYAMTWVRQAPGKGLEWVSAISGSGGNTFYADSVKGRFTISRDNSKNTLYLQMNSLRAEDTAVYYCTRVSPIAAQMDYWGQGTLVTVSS VL: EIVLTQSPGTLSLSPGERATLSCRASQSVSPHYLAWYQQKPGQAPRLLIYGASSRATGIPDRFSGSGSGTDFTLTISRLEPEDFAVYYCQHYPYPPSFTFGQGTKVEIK ?
5.43
